test: NCI Yeast Anticancer Drug Screen. Data for the sgs1 mgt1 strain (AID 161);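 further: 0% = growth of cultures given vehicle only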
measurement.conditions: S. cerevisiae sgs1 mgt1 strain, at 50.0 µM, stronger effect = higher value
Compounds without any hit were thinned out: in the full panel of roughly 79,000, 15% have a hit. Active and inactive are the calls of the source. No stated cut-off is given here; in the data, active means growth inhibition above about 70%; inactive means the rest. Where a SMILES comes first, the peptide text is derived from it. The star is where a group is joined. Cbz = O=C(OCc1ccccc1)*
Below, each entry is listed alongside its reported growth inhibition.
measurement.kind: growth inhibition

compound=C=CCSC(C)=O measurement_kind="growth inhibition" measured="13.9% (inactive)"
compound="CC12CC(=O)NN=C1c1ccccc1C2 (configuration not stated)" measurement_kind="growth inhibition" measured="18.1% (inactive)"
compound="CCC1(N=[N+]=[N-])C(=O)c2ccccc2N(c2ccccc2)C1=O (configuration not stated)" measurement_kind="growth inhibition" measured="-18.9% (inactive)"
compound=CC(=O)CC(=O)Nc1cccc(NC(=O)CC(C)=O)c1 measurement_kind="growth inhibition" measured="-10.6% (inactive)"
compound=N#Cc1nc(CC(=O)c2ccc(Cl)c(Cl)c2)c(CC(=O)c2ccc(Cl)c(Cl)c2)nc1C#N measurement_kind="growth inhibition" measured="9.2% (inactive)"
compound=CCOC(=O)NC(=O)c1cn(CCCCCCCCCCC(=O)NCCCN2CCN(CCCNC(=O)CCCCCCCCCCn3cc(C(=O)NC(=O)OCC)c(=O)[nH]c3=O)CC2)c(=O)[nH]c1=O measurement_kind="growth inhibition" measured="-23.8% (inactive)"
compound=O=[N+]([O-])c1cccc(NSNc2cccc([N+](=O)[O-])c2)c1 measurement_kind="growth inhibition" measured="25.6% (inactive)"
compound=Cc1cccc(C)c1NC(=O)C(=O)/C(=C(\N)c1ccccc1)c1ccccc1 measurement_kind="growth inhibition" measured="-15.2% (inactive)"
compound=COC(=O)c1ccc(OC(=O)Nc2cccc(C(C)=O)c2)cc1 measurement_kind="growth inhibition" measured="10.6% (inactive)"
compound=Cc1nn(C)c(NC(=O)c2ccccc2O)c1SC#N measurement_kind="growth inhibition" measured="16.7% (inactive)"
compound="CN(C)C1CS(=O)(=O)OC2=C1CCSc1ccccc12 (configuration not stated)" measurement_kind="growth inhibition" measured="11.4% (inactive)"
compound="CCOC(=O)CCC(NC(=O)OCc1ccccc1)C(=O)NC(CCC(=O)OCC)C(=O)OCC (configuration not stated) (Cbz-Glu(OEt)-Glu(OEt)-OEt; configuration not given here)" measurement_kind="growth inhibition" measured="-11.4% (inactive)"
compound=O=C(/C=C/c1ccccc1Cl)c1ccc(Cl)c(Cl)c1 measurement_kind="growth inhibition" measured="2.1% (inactive)"
compound=N#Cc1c2ccccc2c(C#N)c2ccccc12 measurement_kind="growth inhibition" measured="1.9% (inactive)"
compound=O=C1c2ccccc2C(=O)N1NC1=NCCN1 measurement_kind="growth inhibition" measured="-13.1% (inactive)"
compound=O=c1c2cc(S(=O)(=O)Nc3c(Cl)cccc3Cl)ccc2ncn1NS(=O)(=O)c1ccc2ccccc2c1 measurement_kind="growth inhibition" measured="-12.4% (inactive)"
compound=CCOC(=O)c1cc(=O)[nH]c(N)n1 measurement_kind="growth inhibition" measured="-1.55% (inactive)"
compound=CC(=O)n1c(=O)c2cc3c(=O)n(-c4cccc(C#N)c4)c(=O)c3cc2c1=O measurement_kind="growth inhibition" measured="9.65% (inactive)"
compound=Cc1ccc(N=NN(C)C)cc1NC(=O)NCC(=O)OC(C)(C)C measurement_kind="growth inhibition" measured="4.95% (inactive)"
compound=Fc1ccc(/C=C/c2ccc(/C=C/c3ccc(F)cc3)nn2)cc1 measurement_kind="growth inhibition" measured="7.8% (inactive)"
compound=CCOC(=O)c1cn(C)c2c1C(O)=C(C(=O)OC)CC(=O)N2 measurement_kind="growth inhibition" measured="-14.2% (inactive)"
compound=COc1ccccc1NC(=O)C(/C=N/C(N)=S)=C(\C)O measurement_kind="growth inhibition" measured="-33.1% (inactive)"

###

test: NCI Yeast Anticancer Drug Screen. Data for the mlh1 rad18 strain (AID 175)
measurement.conditions: S. cerevisiae mlh1 rad18 strain growth inhibition; at 50.0 µM; stronger effect = higher value
Protocol: Growth inhibition of yeast strains with defined genetic alterations is measured as a screen for potential anti-cancer activity. Selected strains with alterations in DNA damage repair or cell cycle control were exposed to compounds and growth inhibition was measured relative to vehicle treated controls. The strain used in this assay is mlh1 rad18
This is part of a sample that, as a whole, favours compounds with a hit. Of some 79,000 tested, about 15% had one in any assay.
compounds and their reported growth inhibition
measurement.kind: growth inhibition (%)

compound=Cc1ccc(NC(=O)CCc2nnc3s/c(=C\c4cccc([N+](=O)[O-])c4)c(=O)n23)cc1 measurement_kind="growth inhibition" unit_symbol=% measured=3.3
compound="C=C1C(=O)OC2(C)CCC1CC1OC1(C)CCC=C(C)CCC2O (configuration not stated)" measurement_kind="growth inhibition" unit_symbol=% measured=-39.5
compound=Cc1ccc(NC(=O)COc2ccc(Cl)cc2)c(C)c1 measurement_kind="growth inhibition" unit_symbol=% measured=0.75
compound=COc1ccc(/C=N/NC(=O)C(=O)Nc2ccc(Cl)c([N+](=O)[O-])c2)cc1OC measurement_kind="growth inhibition" unit_symbol=% measured=-6.4
compound=C#CCCC#C measurement_kind="growth inhibition" unit_symbol=% measured=-5.8
compound=COc1cc2c(cc1OCc1ccccc1)NC(=O)C2 measurement_kind="growth inhibition" unit_symbol=% measured=-7
compound="CC(C(=O)O)N(C)C(=O)OCc1ccccc1 (configuration not stated)" measurement_kind="growth inhibition" unit_symbol=% measured=-4.5
compound="COC1(OC)CCC2=C(C)C(=O)CCC2(CO)C1 (configuration not stated)" measurement_kind="growth inhibition" unit_symbol=% measured=-1.9
compound="CCC(C)(CCC(C)C)c1ccncc1 (configuration not stated)" measurement_kind="growth inhibition" unit_symbol=% measured=3.05
compound=COc1ccc(NC=O)c(C(=O)CCNC(C)=O)c1 measurement_kind="growth inhibition" unit_symbol=% measured=-51.2
compound="O=S1(=O)C(Cl)c2ccccc2-c2ccccc2C1Cl (configuration not stated)" measurement_kind="growth inhibition" unit_symbol=% measured=-9.65
compound=c1cc2c3c(cccc3c1)-c1nc3c(ccc4ccccc43)nc1-2 measurement_kind="growth inhibition" unit_symbol=% measured=12.3

###

test: NCI Yeast Anticancer Drug Screen. Data for the bub3 strain (AID 167)
measurement.conditions: S. cerevisiae bub3 mutant strain, at 50.0 µM, stronger effect = higher value
Compounds without any hit were thinned out: in the full panel of roughly 79,000, 15% have a hit. Activity calls are given as the source filed them. Rule as the data show it: active = growth inhibition above about 70%; inactive = the rest.
measurement.kind: growth inhibition

compound=O=C(NCCc1ccccc1)c1c(O)c2ccccc2[nH]c1=O measured="14.1% (inactive)"
compound=CC(=O)N=C1N(/C=C2\C(=O)Oc3ccccc3C2=O)C(=O)/C(=C/c2ccc(NC(C)=O)cc2)N1C measured="-31.1% (inactive)"
compound=C[N+](=C\c1ccccc1O)/N=C\c1ccccc1O measured="8.2% (inactive)"
compound=CCOC(=O)c1ccnc2ccccc12 measured="5.65% (inactive)"
compound=O=S(=O)(O)NNc1ccc(N=Nc2ccccc2)cc1 measured="-0.75% (inactive)"
compound="COC1c2ccccc2C(C)(C)c2nc3ccccc3cc21 (stereo unspecified)" measured="1.6% (inactive)"

###

test: NCI Yeast Anticancer Drug Screen. Data for the sgs1 mgt1 strain (AID 161);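 further: 0% = growth of cultures given vehicle only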
measurement.conditions: S. cerevisiae sgs1 mgt1 strain, at 50.0 µM, stronger effect = higher value
Protocol: Growth inhibition of yeast strains with defined genetic alterations is measured as a screen for potential anti-cancer activity. Selected strains with alterations in DNA damage repair or cell cycle control were exposed to compounds and growth inhibition was measured relative to vehicle treated controls. The strain used in this assay is sgs1 mgt1
This is part of a sample that, as a whole, favours compounds with a hit. Of some 79,000 tested, about 15% had one in any assay.
Here the recorded growth inhibition is given for each entry.
measurement.kind: growth inhibition (%)

compound=O=C(CCCCC(=O)Oc1ccc([N+](=O)[O-])cc1)Oc1ccc([N+](=O)[O-])cc1 measured=13.3
compound=Cc1[nH]c(/N=C/c2ccc(N(C)C)cc2)c(C#N)c1C measured=-18.4
compound=Cc1ccc(OC/C=C/c2ccc(C#N)cc2)cc1 measured=-4.15
compound=NCc1ccc(S(=O)(=O)Nc2cc(Br)cc(Br)c2)cc1 measured=30.2
compound=O=C(O)Cc1cc(=O)oc2cc(O)c(Cl)cc12 measured=-7.15
compound="C=CCCCCCCCCC(=O)NC(C)C(C)(C)C (stereo not drawn)" measured=14.7
compound="CCC(C)(CCC(C)C)c1ccncc1 (stereo not drawn)" measured=-0.05
compound=Cc1ccc(C2=Nn3c(nc4sc(C)c(C)c4c3=O)SC2)cc1 measured=-23.1
compound=CC(=C\C=N\N(C)c1ccccc1)/C=C1\Cc2ccccc2C1=O measured=-19.1
compound=O=C(O)c1ccccc1SC(Sc1ccccc1C(=O)O)c1ccc2c(c1)OCO2 measured=2.85
compound=O/N=C1\CCc2nonc2\C1=N/Nc1ccccc1 measured=-2.35
compound="CC(C)(C)OC(=O)NC(CCCCNC(=O)OCc1ccccc1)C(=O)NCCNc1ccc(NCCNC(=O)C(CCCCNC(=O)OCc2ccccc2)NC(=O)OC(C)(C)C)c2c1C(=O)c1ccccc1C2=O (stereo not drawn)" measured=-27.4
compound="CN=S(=O)(OC/C=C/COS(=O)(=NC)c1ccc(C)cc1)c1ccc(C)cc1 (stereo not drawn)" measured=-24.1
compound=Cc1c(Cl)cccc1NC(=O)OC/C=C/c1ccccc1 measured=14.8
compound=O=C(O)C(O)(O)C(=O)O measured=-12.6
compound=CCSc1[nH]c(NC(=NC(C)C)NC(=O)c2ccccc2)c(C(N)=O)c1C(N)=O measured=0.8
compound=Cc1nc2c(=O)[nH]c3ccccc3c2o1 measured=3.1
compound=C/C(=N\NC(=O)CC(=O)N(C(=O)c1ccccc1Cl)c1ccc(C)cc1)c1ccc(Cl)cc1 measured=-25.4
compound=O=C(/C=C/c1ccco1)N1CCN(Cc2ccccc2)CC1 measured=23
compound=N#CCC(=O)N1CCCC1 measured=-3.8
compound=CC(C)CN(CC(=O)Nc1cccc(Cl)c1)CC(C)C measured=4.15
compound=Cc1[nH]c2c(O)ccc(O)c2c1C measured=-9.15
compound=Cc1cc(Br)cc(C)c1NC(=O)C(=O)CC(=O)c1sc(-n2nc(-c3ccccc3)cc2-c2ccccc2)nc1C measured=-32.5
